test system: BT-549; assay: NCI tumour cell line growth inhibition, 48 h
Active and inactive are the calls of the source. Cut-off read from the data, not from the text of the source: active = GI50 up to about 1.1 µM and inactive = higher.
value.kind: GI50

- CC(C)CN1CN(c2ccccc2)C2(CCN(CC(C)(c3ccc(F)cc3)C3OCCO3)CC2)C1=O (centres undefined): 6.56 µM (inactive)
- Nc1onc2c1Cc1c(noc1N)-c1ccccc1-2: 17.5 µM (inactive)
- CCCCSC1=N/C(=C\c2ccccc2O)C(Cl)=N1: > 100 µM (inactive)
- O=C1NC(N2CCCCC2)=N/C1=C\c1ccc(Cl)cc1: 71.4 µM (inactive)
- CCCCCC(=O)OCC(=O)[C@H]1[C@H](C)C[C@H]2[C@@H]3C[C@H](F)C4=C/C(=N/OC(=O)c5cccc6c(=O)c7ccccc7[nH]c56)C=C[C@]4(C)[C@H]3[C@@H](O)C[C@@]21C: 16.5 µM (inactive)
- O=C(O)c1cc2cc(c1)/N=C/c1ccccc1OCc1cccc(n1)COc1ccccc1/C=N/2: 23.6 µM (inactive)
- CS(=O)(=O)Nc1ccc(Nc2ccnc3ccc4[nH]ccc4c23)cc1: 19.7 µM (inactive)
- CC1=C(C(=O)OCCO[N+](=O)[O-])C(c2ccccc2C(F)(F)F)C(C(=O)OC(C)C)=C(C)N1 (centres undefined): 13.5 µM (inactive)
- CCOC(=O)/C=C(\N=P(c1ccccc1)(c1ccccc1)c1ccccc1)C(F)(F)C(F)(F)C(F)(F)C(F)(F)C(F)(F)F: > 100 µM (inactive)

====

Consider the following compounds and their measured GI50 readings.
system: OVCAR-3; experiment: NCI tumour cell line growth inhibition, 48 h
Active and inactive are the calls of the source. Cut-off read from the data, not from the text of the source: active = GI50 up to about 1.1 µM and inactive = higher.
value.kind: GI50

• CN(C(=O)c1cc2c(s1)sc1c(=O)n(C)c3ccccc3c12)c1ccccc1 = 7.83 µM (inactive)
• Cc1cc2c(cc1C)[n+]([O-])c(C(=O)CC(=O)C(=O)Nc1c(C(C)C)cccc1C(C)C)c(C)[n+]2[O-] = > 100 µM (inactive)
• CC(=O)Nc1ccc(COC(O)CN2CCCCC2)cc1[N+](=O)[O-] (stereo not given) = > 100 µM (inactive)
• COc1cc(/C=C/C(=N\NC(N)=S)c2sc(NNC(C)=O)nc2C)ccc1O = > 100 µM (inactive)
• CC1NOC(=O)C1/N=N/c1ccc(Cl)cc1Cl (stereo not given) = 16.4 µM (inactive)

====

system: Malme-3M; experiment: NCI tumour cell line growth inhibition, 48 h
Active and inactive are the calls of the source. Rule as the data show it: active = GI50 up to about 1.1 µM and inactive = higher.
Consider the following compounds and their measured GI50 readings.
value.kind: GI50

* O=C1CC(C(OCc2ccccc2)C(OCc2ccccc2)C(COCc2ccccc2)OCc2ccccc2)CC(=O)N1 (stereo not given) | > 100 µM (inactive)
* CC(C)C1CO[C@]2(C)CCC(=O)N12 (stereo not given in full) | > 100 µM (inactive)
* O=C(Nc1ccc(Cl)c(Cl)c1)C(=O)Nn1c(S)nc2ccccc2c1=O | > 100 µM (inactive)
* O=c1c(-c2ccccc2)c(SCCCN2CCN(c3cccc(Cl)c3)CC2)n(-c2ccccc2)c(=S)n1-c1ccccc1 | > 100 µM (inactive)
* CCCCN(CCCC)C1=Nc2ccccc2-n2c(nnc2C(=O)OCC)C1 | 24.6 µM (inactive)
* CC(C)CC1c2[nH]c3ccccc3c2C[C@H]2C(=O)NC(Cc3c[nH]c4ccccc34)C(=O)N12 (stereo not given in full) | 14.6 µM (inactive)
* CN(C)CCNC1=C(Cl)C(=O)c2c(O)ccc(O)c2C1=O | 2.09 µM (inactive)
* Cc1c(S(=O)(=O)N/C(=N\O)Nc2ccc(Cl)c(Cl)c2)sc2ccc(Cl)cc12 | 20.7 µM (inactive)
* O=C1NC2(CCCCCC2)C2CCCCCCC12O (stereo not given) | > 100 µM (inactive)
* C[C@@H](NC1CCC[C@H]1O)c1ccccc1 (stereo not given in full) | > 100 µM (inactive)

====

system: DMS-114; assay: NCI tumour cell line growth inhibition, 48 h
The source made the active and inactive calls. Cut-off read from the data, not from the text of the source: active = GI50 up to about 1.1 µM and inactive = higher.
value.kind: GI50

- CP1(=O)CCCCC1: > 100 µM (inactive)
- C=C(CO)CC(/C=C(\C)CC/C=C(\C)CCl)OC(C)=O (stereo unspecified): > 100 µM (inactive)
- O=C(O)CCC(=O)N1c2ccccc2CC1c1c[nH]c2ccccc12 (stereo unspecified): > 100 µM (inactive)
- CC(C)C1CO[C@]2(C)CCC(=O)N12 (stereo partly specified): > 100 µM (inactive)
- Cc1ccc(NC(=O)CC/C(CC(=O)C(C)(C)C)=N/NC(=O)C[N+](C)(C)C)cc1C: > 100 µM (inactive)
- Cn1c(=O)nc2n(-c3ccc(F)cc3)c3ccccc3nc-2c1=O: 12.8 µM (inactive)
- CCCCCCCCC(O)C#CC(N)=O (stereo unspecified): 3.34 µM (inactive)
- O=C(Cc1ccccc1)NN1C(=O)C(Cl)C1c1ccccc1 (stereo unspecified): 33.9 µM (inactive)
- CCN(CC)CCSc1nc2cccc([N+](=O)[O-])c2[nH]1: > 100 µM (inactive)
- Cn1c(=O)c2[nH]cnc2n(CC(N)=O)c1=O: > 100 µM (inactive)
- CC(C)=CC1C[C@H](C2CC=C3C2(C)CCC2[C@@]3(C)C(=O)CC3[C@]2(C)C=CC(=O)[C@]3(C)CO)CO1 (stereo partly specified): 4.23 µM (inactive)

====

Consider the following compounds and their measured GI50 readings.
system: HOP-18; experiment: NCI tumour cell line growth inhibition, 48 h
Active and inactive are the calls of the source. Rule as the data show it: active = GI50 up to about 1.1 µM and inactive = higher.
value.kind: GI50

- CCN(CC)CCN1CCc2c([nH]c3ccccc23)C1c1cccnc1 (stereo unspecified): > 100 µM (inactive)
- Cc1ccc(NC(=O)CC/C(CC(=O)C(C)(C)C)=N/NC(=O)C[N+](C)(C)C)cc1C: > 100 µM (inactive)
- Cn1c(=O)nc2n(-c3ccc(F)cc3)c3ccccc3nc-2c1=O: 19.4 µM (inactive)
- Cc1nc2ccccc2c(=O)n1/N=C(\N=N\c1cccc(Cl)c1)c1ccccc1Cl: 1.48 µM (inactive)
- CCCCCCCCCCCC1CCCC(C)N1 (stereo unspecified): 87.9 µM (inactive)
- O=C(Cc1ccccc1)N/N=C(/c1nc2ccc([N+](=O)[O-])cc2nc1O)C(O)c1ccco1 (stereo unspecified): > 100 µM (inactive)
- Cc1ccc(-c2cc(=O)c3cc(C)c(C)c(C(=O)O)c3o2)cc1N: > 100 µM (inactive)
- O=C1Nc2ccccc2N/C1=C\C(=O)c1ccccc1O: > 100 µM (inactive)
- COC(=O)c1c/c(=N\NC(=O)CC(=O)Nc2ccc(C)cc2)c2ccccc2o1: > 100 µM (inactive)
- Cn1cnc2nc(Cl)nc(NC(C)(C)C(C)(C)O)c21: > 100 µM (inactive)
- CC(C)C1CO[C@]2(C)CCC(=O)N12 (stereo partly specified): > 100 µM (inactive)

====

Consider the following compounds and their measured GI50 readings.
system: SK-MEL-5; test: NCI tumour cell line growth inhibition, 48 h
Calls of active or inactive are those of the source. No stated cut-off is given here; in the data, active = GI50 up to about 1.1 µM and inactive = higher.
value.kind: GI50

• COC(=O)c1ccc(OCc2ccc3oc(=O)c(-c4ccccc4)nc3c2)cc1 = > 100 µM (inactive)
• O=C(O)COc1cc(-c2ccccc2)nc2cc(F)ccc12 = > 100 µM (inactive)
• CC1=C(C#N)S(=O)(=O)c2c(oc(C)c2C)N1 = > 100 µM (inactive)
• Cc1ccc(S(=O)(=O)c2c(O)c3ccccc3n(C)c2=O)cc1 = > 100 µM (inactive)
• Cc1ccc(C)c(NC(=O)c2cc(-c3ccc([N+](=O)[O-])cc3)nc(N)n2)c1 = > 100 µM (inactive)
• C1CN2CCN3CCN4CCN1[PH]243 = > 100 µM (inactive)
• CC1=C(C(=O)CC(=O)C(=O)Nc2ccccc2)Sc2ccccc2N1 = > 100 µM (inactive)
• CC1C(O)=C(O)c2ccccc2N1O (configuration not stated) = > 100 µM (inactive)
• Nc1nc(Cl)c2ncn(Cc3ccccc3CCl)c2n1 = 8.55 µM (inactive)
• Cc1ccc(NC(=O)CC/C(CC(=O)C(C)(C)C)=N/NC(=O)C[N+](C)(C)C)cc1C = > 100 µM (inactive)
• CC[P+](C#Cc1ccccc1)(c1ccccc1)c1ccccc1 = 1.22 µM (inactive)
• Brc1ccc(-c2cn3ccncc3n2)cc1 = > 100 µM (inactive)

====

test system: KM-20L2; test: NCI tumour cell line growth inhibition, 48 h
The source made the active and inactive calls. No stated cut-off is given here; in the data, active = GI50 up to about 1.1 µM and inactive = higher.
Labels: 1 (active), -1 (inactive)

• O=c1c2cccc3cccc(c4oc5c6cccc7cccc(c(=O)c5c14)c76)c32 = -1
• CC1=NN(C(=O)Nc2ccc(Cl)cc2)C(=O)C2CCC(=O)N12 (centres undefined) = -1
• COc1ccc(CN[C@H]2CCc3cc(OC)c(OC)c(OC)c3-c3ccc(SC)c(=O)cc32)c(OC)c1OC = 1
• Cc1cc(C)nc(NS(=O)(=O)c2ccc(Nc3c4ccccc4nc4c(C(=O)N5CCN(CCOS(C)(=O)=O)CC5)ccc(Cl)c34)cc2)n1 = -1
• CC(C)(C)c1cc(Oc2ccc(C#N)c(C#N)c2)cc(C(C)(C)C)c1 = -1
• COc1cc(CCc2ccc(OCCN(C)C)cc2)cc(OC)c1OC = -1
• CCOC(=O)C(C(=O)OCC)=C1C=C(c2ccccc2)c2ccccc21 = -1
• C[C@]12CCC(=O)C=C1CC[C@@H]1[C@@H]2CC[C@]2(C)C(=O)NC(=O)C[C@@H]12 = -1
• CN(C)CCNC(=O)c1cccc2nc3c(ccc4ccccc43)nc12 = -1
